Target Or System: pyrimidine nucleoside phosphorylase (Geobacillus stearothermophilus)
Construct: nucleoside phosphorylase obtained by extraction/purification from Bacillus stearothermophilus TH6-2; endogenous in cells; host or cells: Bacillus stearothermophilus TH6-2 (FERM BP-2758), enzyme purified in house from the wild cells
Sequence (P77836 whole entry): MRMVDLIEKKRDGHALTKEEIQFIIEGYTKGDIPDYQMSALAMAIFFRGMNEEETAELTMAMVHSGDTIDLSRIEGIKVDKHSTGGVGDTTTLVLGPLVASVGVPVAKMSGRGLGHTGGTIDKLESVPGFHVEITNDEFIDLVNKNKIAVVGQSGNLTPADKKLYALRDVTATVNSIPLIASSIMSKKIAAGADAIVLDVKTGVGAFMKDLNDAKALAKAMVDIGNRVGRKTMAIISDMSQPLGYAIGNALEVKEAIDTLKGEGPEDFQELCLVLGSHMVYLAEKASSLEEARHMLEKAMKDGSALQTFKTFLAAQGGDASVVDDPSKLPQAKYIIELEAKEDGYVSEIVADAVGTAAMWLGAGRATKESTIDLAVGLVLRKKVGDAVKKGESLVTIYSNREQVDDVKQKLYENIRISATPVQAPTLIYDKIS
Protocol Details: Substrate specificity: phosphorolysis of pyrimidine nucleoside substrates by purified enzyme
Format: biochemical, Bacillus stearothermophilus TH6-2
Condition: 10 mM nucleoside, 50 mM potassium dihydrogenphosphate, pH 8.0, 50° C., 10 minutes
Entries and their measured Amount of Base Formed follow.
Respond with the bare value in μmol/10 min..

Q: Could you tell me which Amount of Base Formed is on file for `Nc1ccn([C@@H]2O[C@H](CO)[C@@H](O)[C@H]2O)c(=O)n1` ?
A: 0

Q: Could you tell me which Amount of Base Formed is on file for `O=c1[nH]cc([C@@H]2O[C@H](CO)[C@@H](O)[C@H]2O)c(=O)[nH]1` ?
A: 0

Q: Could you tell me which Amount of Base Formed is on file for `O=c1ccn2c(n1)O[C@H]1[C@H](O)[C@@H](CO)O[C@H]12` ?
A: 0

Q: Could you tell me which Amount of Base Formed is on file for `O=c1ccn([C@@H]2O[C@H](CO)[C@@H](O)[C@H]2O)c(=O)[nH]1` ?
A: 1.73

Q: Could you tell me which Amount of Base Formed is on file for `O=c1ccn([C@H]2C[C@H](O)[C@@H](CO)O2)c(=O)[nH]1` ?
A: 2.55
